# assay: Rat pharmacokinetics, iv and po dosing, whole blood and plasma
# Format: in vivo
# condition: whole blood, po 10 mg/kg, mean
experimental.readout: Tmax (h)
Number in h, nothing else.

### Prompt Quick one: Tmax of CC(C)CC1NC(=O)[C@H](CC(C)C)N(C)C(=O)CN(C)C(=O)C([C@@H](C)O)NC(=O)C([C@H](O)[C@H](C)CCN2CCOCC2)N(C)C(=O)C(C(C)C)N(C)C(=O)C(CC(C)C)NC(=O)C(CC(C)C)N(C)C(=O)C(C(C)C)OC(=O)C(C)NC(=O)C(CC(C)C)N(C)C1=O (stereo in doubt) ?
### Response 2

----------
# assay: Rat pharmacokinetics, iv and po dosing, whole blood and plasma
# Assay type: in vivo
# condition: plasma, po 10 mg/kg, mean, read-out: half-life (T1/2) (converted)
# Method: Rat pharmacokinetic data was obtained for example 2, following iv dosing at 1 mg/kg and po dosing at 10 mg/kg and individual analysis of plasma and whole blood samples at various time points was carried out.
experimental.readout: half-life (h)
Report as a plain number; the unit h is understood.

### Prompt half-life for CC(C)CC1NC(=O)[C@H](CC(C)C)N(C)C(=O)CN(C)C(=O)C([C@@H](C)O)NC(=O)C([C@H](O)[C@H](C)CCN2CCOCC2)N(C)C(=O)C(C(C)C)N(C)C(=O)C(CC(C)C)NC(=O)C(CC(C)C)N(C)C(=O)C(C(C)C)OC(=O)C(C)NC(=O)C(CC(C)C)N(C)C1=O (stereo in doubt) ?
### Response 4.4

----------
# assay: Water solubility assay (pH 7.8 buffer)
# Assay type: physicochemical
# condition: pH 7.8
Numbered stars: 1 amine (or outer) side, 2 acyl side, 3 side chain; on linkers, the order of the positions; unused ones are H or OH. Square brackets hold non-standard residues; d marks the D form. Peptide text beside a SMILES is read from it. X10 = Cc1cccc(/C=C/C[C@@H](C)[C@@H](O)[C@H](C(=O)[*:2])N(C)[*:1])n1; X21 = C[C@H](CCN(C)C1CCOCC1)[C@@H](O)[C@H](C(=O)[*:2])N(C)[*:1]; X27 = C[C@H](CCN(C)c1ccccn1)[C@@H](O)[C@H](C(=O)[*:2])N(C)[*:1]; d(aThr) = C[C@@H](O)[C@@H](N)C(=O)O; NMeL = CN[C@@H](CC(C)C)C(=O)O; dNMeL = CN[C@H](CC(C)C)C(=O)O; dNMeV = CN[C@@H](C(=O)O)C(C)C; Hiv = CC(C)[C@H](O)C(=O)O; dAbu = CC[C@@H](N)C(=O)O; Sar = CNCC(=O)O
Entries and their measured solubility at 18 h follow.

| compound | solubility at 18 h |
| --- | --- |
| CC(C)C[C@@H]1C(=O)N[C@H](CC(C)C)C(=O)N(C)[C@H](C(C)C)C(=O)N(C)[C@H]([C@H](O)[C@H](C)CCN(C)c2ccccn2)C(=O)N[C@H]([C@@H](C)O)C(=O)N(C)CC(=O)N(C)[C@@H](CC(C)C)C(=O)N[C@H](CC(C)C)C(=O)N(C)[C@H](CC(C)C)C(=O)N[C@H](C)C(=O)O[C@@H](C(C)C)C(=O)N1C [Example 28] (cyclo([Hiv][dNMeL][dL][dNMeV][X27][d(aThr)][Sar][NMeL][dL][dNMeL][dA])) | 25 to 50 µM |
| CC(C)C[C@@H]1C(=O)N[C@H](CC(C)C)C(=O)N(C)[C@H](C(C)C)C(=O)N(C)[C@H]([C@H](O)[C@H](C)CCN(C)C2CCOCC2)C(=O)N[C@H]([C@@H](C)O)C(=O)N(C)CC(=O)N(C)[C@@H](CC(C)C)C(=O)N[C@H](CC(C)C)C(=O)N(C)[C@H](CC(C)C)C(=O)N[C@H](C)C(=O)O[C@@H](C(C)C)C(=O)N1C [Example 12] (cyclo([Hiv][dNMeL][dL][dNMeV][X21][d(aThr)][Sar][NMeL][dL][dNMeL][dA])) | > 100 µM |

Please look at the following compound next.
### Prompt What solubility at 18 h value was documented for this compound, CC[C@H]1NC(=O)[C@@H]([C@H](O)[C@H](C)C/C=C/c2cccc(C)n2)N(C)C(=O)[C@@H](C(C)C)N(C)C(=O)[C@@H](CC(C)C)NC(=O)[C@@H](CC(C)C)N(C)C(=O)[C@H](C(C)C)OC(=O)[C@@H](C)NC(=O)[C@@H](CC(C)C)N(C)C(=O)[C@@H](CC(C)C)NC(=O)[C@H](CC(C)C)N(C)C(=O)CN(C)C1=O [Example 19] (cyclo([Hiv][dNMeL][dL][dNMeV][X10][dAbu][Sar][NMeL][dL][dNMeL][dA])) ?
### Response 10 to 25 µM
